B1: library; numbered along this chain (parent)
chain: MATDAALRRLLRLHRTEIAVAVDSAFPLLHALADHDVVPEDKFQETLHLKEKEGCPQAFHALLSWLLTQDSTAILDFWRVLFKDYNLERYGRLQPILDSFPKDVDLSQPRKGRKPPAVPKALVPPPRLPTKRKASEEARAAAPAALTPRGTASPGSQLKAKPPKKPESSAEQQRLPLGNGIQTMSASVQRAVAMSSGDVPGARGAVEGILIQQVFESGGSKKCIQVGGEFYTPSKFEDSGSGKNKARSSSGPKPLVRAKGAQGAAPGGGEARLGQQGSVPAPLALPSDPQLHQKNEDECAVCRDGGELICCDGCPRAFHLACLSPPLREIPSGTWRCSSCLQATVQEVQPRAEEPRPQEPPVETPLPPGLRSAGEEVRGPPGEPLAGMDTTLVYKHLPAPPSAAPLPGLDSSALHPLLCVGPEGQQNLAPGARCGVCGDGTDVLRCTHCAAAFHWRCHFPAGTSRPGTGLRCRSCSGDVTPAPVEGVLAPSPARLAPGPAKDDTASHEPALHRDDLESLLSEHTFDGILQWAIQSMARPAAPFPS

- Variants of: B1
- ASSAY_PROCEDURE: AIRE transcriptional activation functional score (insulin promoter-GFP; nonsense median 0, synonymous median 1) (normalised score); higher = higher AIRE activity (more reporter activation)
- CONDITION_NOTES: with insulin promoter-GFP reporter in HEK293
AIRE transcriptional activation functional score of 0.6 or higher: class 1. Under 0.6: class 0.

mutation_key=K131A classification="class 0"
mutation_key=E347P classification="class 1"
mutation_key=S249C classification="class 1"
mutation_key=R139W classification="class 1"
mutation_key=S135Y classification="class 1"
mutation_key=R378M classification="class 0"
mutation_key=A145V classification="class 1"
mutation_key=K131T classification="class 0"
mutation_key=V345I classification="class 1"
mutation_key=L327F classification="class 1"
mutation_key=P380A classification="class 1"
mutation_key=C419T classification="class 1"
mutation_key=L511K classification="class 0"
